- experiment_summary: Pharmacokinetic evaluation of the release of naltrexone from Compound 4 in rats following a single intramuscular injection
- Assay type: in vivo, Sprague-Dawley rats
- measurement_parameters: male, Sprague-Dawley, rat, plasma, intramuscular, 48.3 mg/animal, rat plasma, individual animals Rat 1-5, day 14 after single IM dose of Compound 4; read-out: Compound 4 conc.
- Excerpt: Five male Sprague-Dawley rats were allowed to acclimate to the test facility for at least 3 days prior to study start. […] The formulation dosed was a crystalline suspension of Compound 4 (48.3 milligrams of Compound 4 dosed per animal), wherein the crystalline test article was characterized with a particle size distribution of Dv10=4.0 μm, Dv50=6.4 μm, and Dv90=9.6 μm (as measured via laser diffraction). […]

smiles_data	concentration at 14 day
O=C(Cc1ccc(CC(=O)Oc2ccc3c4c2O[C@H]2C(=O)CC[C@@]5(O)[C@@H](C3)N(CC3CC3)CC[C@]425)s1)Oc1ccc2c3c1O[C@H]1C(=O)CC[C@@]4(O)[C@@H](C2)N(CC2CC2)CC[C@]314	< 0.5 ng/mL

====

- experiment_summary: Pharmacokinetic evaluation of the release of naltrexone from Compound 4 in rats following a single intramuscular injection
- Assay type: in vivo, Sprague-Dawley rats
- measurement_parameters: male, Sprague-Dawley, rat, plasma, intramuscular, 48.3 mg per animal, rat plasma, individual animals Rat 1-5, day 84 after single IM dose of Compound 4; read-out: Compound 4 conc.

compound	concentration at 84 day
O=C(Cc1ccc(CC(=O)Oc2ccc3c4c2O[C@H]2C(=O)CC[C@@]5(O)[C@@H](C3)N(CC3CC3)CC[C@]425)s1)Oc1ccc2c3c1O[C@H]1C(=O)CC[C@@]4(O)[C@@H](C2)N(CC2CC2)CC[C@]314 [Compound 4]	< 0.5 ng/mL

====

- experiment_summary: Pharmacokinetic evaluation of the release of naltrexone from Compound 4 in rats following a single intramuscular injection
- Type: in vivo, Sprague-Dawley rats
- measurement_parameters: male, Sprague-Dawley, rat, plasma, intramuscular, 48.3 mg per animal, rat plasma, individual animals Rat 1-5, day 49 after single IM dose of Compound 4; read-out: Compound 4 conc.
- Excerpt: Five male Sprague-Dawley rats were allowed to acclimate to the test facility for at least 3 days prior to study start. […] The formulation dosed was a crystalline suspension of Compound 4 (48.3 milligrams of Compound 4 dosed per animal), wherein the crystalline test article was characterized with a particle size distribution of Dv10=4.0 μm, Dv50=6.4 μm, and Dv90=9.6 μm (as measured via laser diffraction). […]

smiles_data	concentration at 49 day
O=C(Cc1ccc(CC(=O)Oc2ccc3c4c2O[C@H]2C(=O)CC[C@@]5(O)[C@@H](C3)N(CC3CC3)CC[C@]425)s1)Oc1ccc2c3c1O[C@H]1C(=O)CC[C@@]4(O)[C@@H](C2)N(CC2CC2)CC[C@]314	< 0.5 ng/mL

====

- experiment_summary: Pharmacokinetic evaluation of the release of naltrexone from Compound 4 in rats following a single intramuscular injection
- Type: in vivo, Sprague-Dawley rats
- measurement_parameters: male, Sprague-Dawley, rat, plasma, intramuscular, 48.3 mg/animal, rat plasma, individual animals Rat 1-5, day 35 after single IM dose of Compound 4; read-out: Compound 4 conc.

compound	concentration at 35 day
O=C(Cc1ccc(CC(=O)Oc2ccc3c4c2O[C@H]2C(=O)CC[C@@]5(O)[C@@H](C3)N(CC3CC3)CC[C@]425)s1)Oc1ccc2c3c1O[C@H]1C(=O)CC[C@@]4(O)[C@@H](C2)N(CC2CC2)CC[C@]314 [Compound 4]	< 0.5 ng/mL

====

- experiment_summary: Pharmacokinetic evaluation of the release of naltrexone from Compound 4 in rats following a single intramuscular injection
- Format: in vivo, Sprague-Dawley rats
- measurement_parameters: male, Sprague-Dawley, rat, plasma, intramuscular, 48.3 mg per animal, rat plasma, individual animals Rat 1-5, day 56 after single IM dose of Compound 4; read-out: Compound 4 conc.
measured_quantity: concentration at 56 day

smiles_data	measured_quantity	value_measured
O=C(Cc1ccc(CC(=O)Oc2ccc3c4c2O[C@H]2C(=O)CC[C@@]5(O)[C@@H](C3)N(CC3CC3)CC[C@]425)s1)Oc1ccc2c3c1O[C@H]1C(=O)CC[C@@]4(O)[C@@H](C2)N(CC2CC2)CC[C@]314	concentration at 56 day	< 0.5 ng/mL

====

- experiment_summary: Pharmacokinetic evaluation of the release of naltrexone from Compound 4 in rats following a single intramuscular injection
- Format: in vivo, Sprague-Dawley rats
- measurement_parameters: male, Sprague-Dawley, rat, plasma, intramuscular, 48.3 mg/animal, rat plasma, individual animals Rat 1-5, day 10 after single IM dose of Compound 4; read-out: Compound 4 conc.
measured_quantity: concentration at 10 day

smiles_data	value_measured
O=C(Cc1ccc(CC(=O)Oc2ccc3c4c2O[C@H]2C(=O)CC[C@@]5(O)[C@@H](C3)N(CC3CC3)CC[C@]425)s1)Oc1ccc2c3c1O[C@H]1C(=O)CC[C@@]4(O)[C@@H](C2)N(CC2CC2)CC[C@]314	< 0.5 ng/mL

====

- experiment_summary: Whole blood stability assay
- Format: in vitro ADME
- measurement_parameters: pooled fresh human whole blood, 37 degrees C., prodrug 50 nM; read-out: t1/2 at 37 degrees C. in human whole blood
measured_quantity: half-life at 50 nM

molecule	value_measured
O=C(Cc1ccc(CC(=O)Oc2ccc3c4c2O[C@H]2C(=O)CC[C@@]5(O)[C@@H](C3)N(CC3CC3)CC[C@]425)s1)Oc1ccc2c3c1O[C@H]1C(=O)CC[C@@]4(O)[C@@H](C2)N(CC2CC2)CC[C@]314	4.19 min
O=C(Oc1ccc2c3c1O[C@H]1C(=O)CC[C@@]4(O)[C@@H](C2)N(CC2CC2)CC[C@]314)c1ccc(C(=O)Oc2ccc3c4c2O[C@H]2C(=O)CC[C@@]5(O)[C@@H](C3)N(CC3CC3)CC[C@]425)cc1 [Reference Compound A, NTX-3-terephthaloyl-NTX, reference compound]	54.7 min
O=C(Cc1cscc1CC(=O)Oc1ccc2c3c1O[C@H]1C(=O)CC[C@@]4(O)[C@@H](C2)N(CC2CC2)CC[C@]314)Oc1ccc2c3c1O[C@H]1C(=O)CC[C@@]4(O)[C@@H](C2)N(CC2CC2)CC[C@]314	< 5 min
O=C(Cc1sc(CC(=O)Oc2ccc3c4c2O[C@H]2C(=O)CC[C@@]5(O)[C@@H](C3)N(CC3CC3)CC[C@]425)c2ccccc12)Oc1ccc2c3c1O[C@H]1C(=O)CC[C@@]4(O)[C@@H](C2)N(CC2CC2)CC[C@]314	41.2 min
O=C(CCc1ccc(CCC(=O)Oc2ccc3c4c2O[C@H]2C(=O)CC[C@@]5(O)[C@@H](C3)N(CC3CC3)CC[C@]425)s1)Oc1ccc2c3c1O[C@H]1C(=O)CC[C@@]4(O)[C@@H](C2)N(CC2CC2)CC[C@]314	7.2 min

====

- experiment_summary: Pharmacokinetic evaluation of the release of naltrexone from Compound 4 in rats following a single intramuscular injection
- Type: in vivo, Sprague-Dawley rats
- measurement_parameters: male, Sprague-Dawley, rat, plasma, intramuscular, 48.3 mg per animal, rat plasma, individual animals Rat 1-5, day 70 after single IM dose of Compound 4; read-out: Compound 4 conc.
measured_quantity: concentration at 70 day

smiles_data	measured_quantity	value_measured
O=C(Cc1ccc(CC(=O)Oc2ccc3c4c2O[C@H]2C(=O)CC[C@@]5(O)[C@@H](C3)N(CC3CC3)CC[C@]425)s1)Oc1ccc2c3c1O[C@H]1C(=O)CC[C@@]4(O)[C@@H](C2)N(CC2CC2)CC[C@]314	concentration at 70 day	< 0.5 ng/mL

====

- experiment_summary: Pharmacokinetic evaluation of the release of naltrexone from Compound 4 in rats following a single intramuscular injection
- Type: in vivo, Sprague-Dawley rats
- measurement_parameters: male, Sprague-Dawley, rat, plasma, intramuscular, 48.3 mg per animal, rat plasma, individual animals Rat 1-5, day 1 after single IM dose of Compound 4; read-out: Compound 4 conc.
measured_quantity: concentration at 1 day

compound	measured_quantity	value_measured
O=C(Cc1ccc(CC(=O)Oc2ccc3c4c2O[C@H]2C(=O)CC[C@@]5(O)[C@@H](C3)N(CC3CC3)CC[C@]425)s1)Oc1ccc2c3c1O[C@H]1C(=O)CC[C@@]4(O)[C@@H](C2)N(CC2CC2)CC[C@]314 [Compound 4]	concentration at 1 day	< 0.5 ng/mL

====

- experiment_summary: Pharmacokinetic evaluation of the release of naltrexone from Compound 4 in rats following a single intramuscular injection
- Assay type: in vivo, Sprague-Dawley rats
- measurement_parameters: male, Sprague-Dawley, rat, plasma, intramuscular, 48.3 mg/animal, rat plasma, individual animals Rat 1-5, day 21 after single IM dose of Compound 4; read-out: Compound 4 conc.
measured_quantity: concentration at 21 day

smiles_data	measured_quantity	value_measured
O=C(Cc1ccc(CC(=O)Oc2ccc3c4c2O[C@H]2C(=O)CC[C@@]5(O)[C@@H](C3)N(CC3CC3)CC[C@]425)s1)Oc1ccc2c3c1O[C@H]1C(=O)CC[C@@]4(O)[C@@H](C2)N(CC2CC2)CC[C@]314	concentration at 21 day	< 0.5 ng/mL

// data source = patent US10975099B2
